Reported CD46 expression Post values for a set of compounds
# Test system: CD46 expression
# measurement description: CD46 expression by RNA-sequencing in unpaired pre-treatment and post-treatment tumor biopsies
# Assay type: in vivo, human
# protocol conditions: Breast Cancer; post-treatment biopsies; log2-transformed RNA-seq counts
Quick one: just the number, no unit, thanks!

CC(=O)O[C@H]1C(=O)[C@@]2(C)[C@H]([C@H](OC(=O)c3ccccc3)[C@]3(O)C[C@H](OC(=O)[C@H](O)[C@@H](NC(=O)c4ccccc4)c4ccccc4)C(C)=C1C3(C)C)[C@]1(OC(C)=O)CO[C@@H]1C[C@@H]2O = 6.04
CCN1CCN(Cc2ccc(Nc3ncc(F)c(-c4cc(F)c5nc(C)n(C(C)C)c5c4)n3)nc2)CC1 = 6.33
CN(C)C(=O)c1cc2cnc(Nc3ccc(N4CCNCC4)cn3)nc2n1C1CCCC1 = 6.30

Could you now consider this next compound?
I'm curious: which CD46 expression Post was measured for CCNC(=O)[C@@H]1CCCN1C(=O)[C@H](CCCNC(=N)N)NC(=O)[C@H](CC(C)C)NC(=O)[C@@H](CC(C)C)NC(=O)[C@H](Cc1ccc(O)cc1)NC(=O)[C@H](CO)NC(=O)[C@H](Cc1c[nH]c2ccccc12)NC(=O)[C@H](Cc1c[nH]cn1)NC(=O)[C@@H]1CCC(=O)N1 [leuprolide] tested on CD46 expression? 6.18

----------
# Test system: CD46 expression
# measurement description: CD46 expression by RNA-sequencing in unpaired pre-treatment and post-treatment tumor biopsies
# Type: in vivo, human
# protocol conditions: Ovarian Cancer; Post minus Pre, unpaired biopsies; log2-transformed counts
property measured: CD46 expression diff
Answer using only a numeral; do not append any unit.

CC(=O)O[C@H]1C(=O)[C@@]2(C)[C@H]([C@H](OC(=O)c3ccccc3)[C@]3(O)C[C@H](OC(=O)[C@H](O)[C@@H](NC(=O)c4ccccc4)c4ccccc4)C(C)=C1C3(C)C)[C@]1(OC(C)=O)CO[C@@H]1C[C@@H]2O = −0.01
N.N.[Cl][Pt][Cl] [cisplatin] = 0.03
O=P1(N(CCCl)CCCl)NCCCO1 (stereo not shown) [cyclophosphamide] = 0.11
N.N.O=C([O-])C1(C(=O)[O-])CCC1.[Pt+2] = −0.01
Nc1ccn([C@@H]2O[C@H](CO)[C@@H](O)C2(F)F)c(=O)n1 = −0.05

// query CD46 expression diff value for entry O=C(c1cc(Cc2n[nH]c(=O)c3ccccc23)ccc1F)N1CCN(C(=O)C2CC2)CC1 −0.02

// CD46 expression diff lookup, key: CC(=O)O[C@@]12CO[C@@H]1C[C@H](O)[C@@]1(C)C(=O)[C@H](O)C3=C(C)[C@@H](OC(=O)[C@H](O)[C@@H](NC(=O)OC(C)(C)C)c4ccccc4)C[C@@](O)([C@@H](OC(=O)c4ccccc4)[C@H]21)C3(C)C 0.12

----------
# Tested on: CD46 expression
# measurement description: CD46 expression by RNA-sequencing in paired tumor biopsies before and after therapy
# protocol conditions: Ovarian Cancer; paired biopsies
Recorded CD46 expression diff (post minus pre) values for a group of compounds are listed next.
Answer field: number only, no words.

Some solved cases for reference:
CC(=O)O[C@H]1C(=O)[C@@]2(C)[C@H]([C@H](OC(=O)c3ccccc3)[C@]3(O)C[C@H](OC(=O)[C@H](O)[C@@H](NC(=O)c4ccccc4)c4ccccc4)C(C)=C1C3(C)C)[C@]1(OC(C)=O)CO[C@@H]1C[C@@H]2O [paclitaxel] = −0.04
N.N.O=C([O-])C1(C(=O)[O-])CCC1.[Pt+2] [carboplatin] = 0.01

Look up CD46 expression diff (post minus pre) for this compound: O=C(c1cc(Cc2n[nH]c(=O)c3ccccc23)ccc1F)N1CCN(C(=O)C2CC2)CC1 [olaparib] −0.14

What value of measured CD46 expression diff (post minus pre) is listed for Nc1ccn([C@@H]2O[C@H](CO)[C@@H](O)C2(F)F)c(=O)n1 [gemcitabine] ? 0.30

----------
# Test system: CD46 expression
# measurement description: CD46 expression by RNA-sequencing in unpaired pre-treatment and post-treatment tumor biopsies
# Type: in vivo, human
# protocol conditions: Esophageal Cancer; Post minus Pre, unpaired biopsies; log2-transformed counts
Use TRUE when the recorded CD46 expression diff is no lower than -0.06; use FALSE when it is lower.

Nc1nc2c(c(=O)[nH]1)N(C=O)C(CNc1ccc(C(=O)N[C@@H](CCC(=O)O)C(=O)O)cc1)CN2 (stereo partly drawn) [leucovorin] = TRUE

Answer whether CD46 expression diff of CC(=O)O[C@H]1C(=O)[C@@]2(C)[C@H]([C@H](OC(=O)c3ccccc3)[C@]3(O)C[C@H](OC(=O)[C@H](O)[C@@H](NC(=O)c4ccccc4)c4ccccc4)C(C)=C1C3(C)C)[C@]1(OC(C)=O)CO[C@@H]1C[C@@H]2O [paclitaxel] is greater than or equal to -0.06. FALSE

For this compound, is measured CD46 expression diff -0.06 or higher? N.N.O=C([O-])C1(C(=O)[O-])CCC1.[Pt+2] [carboplatin] FALSE

Does CD46 expression diff meet or surpass -0.06 for CCCCCOC(=O)Nc1nc(=O)n([C@@H]2O[C@H](C)[C@@H](O)[C@H]2O)cc1F [capecitabine] ? TRUE

----------
Recorded CD46 expression, Post-Treatment Biopsy by entry
# System: CD46 expression
# measurement description: CD46 expression by RNA-sequencing in paired tumor biopsies before and after therapy
# protocol conditions: Colorectal Cancer; paired biopsies; RNA-seq log2-transformed counts
Lab note: jot the number down without any unit.

O=C1[O][Pt]2([NH][C@@H]3CCCC[C@H]3[NH]2)[O]C1=O [oxaliplatin] = 6.26

Could you now consider this next molecule?
Need CD46 expression, Post-Treatment Biopsy of CNC(=O)c1cc(Oc2ccc(NC(=O)Nc3ccc(Cl)c(C(F)(F)F)c3)c(F)c2)ccn1 [regorafenib] , thanks. 6.49

----------
Listed compounds paired with reported CD46 expression Percentage change
# Test system: CD46 expression
# measurement description: CD46 expression by RNA-sequencing in unpaired pre-treatment and post-treatment tumor biopsies
# Format: in vivo, human
# protocol conditions: Non-Small Cell Lung Cancer; post- vs pre-treatment unpaired biopsies

Example compounds with recorded CD46 expression Percentage change:
C[C@@H]1C[C@H]2[C@@H]3CCC4=CC(=O)C=C[C@]4(C)[C@@]3(F)[C@@H](O)C[C@]2(C)[C@@]1(O)C(=O)CO = 0.0%
N.N.O=C([O-])C1(C(=O)[O-])CCC1.[Pt+2] = −1.2%
C#Cc1cccc(Nc2ncnc3cc(OCCOC)c(OCCOC)cc23)c1 = −0.6%
Nc1nc2[nH]cc(CCc3ccc(C(=O)N[C@@H](CCC(=O)O)C(=O)O)cc3)c2c(=O)[nH]1 = −1.8%
COc1cc([C@@H]2c3cc4c(cc3[C@@H](O[C@@H]3O[C@@H]5CO[C@@H](C)O[C@H]5[C@H](O)[C@H]3O)[C@H]3COC(=O)[C@H]23)OCO4)cc(OC)c1O [etoposide] = 1.7%
N.N.[Cl][Pt][Cl] [cisplatin] = −0.8%

So what's the measured CD46 expression Percentage change for this one? C[C@H]1C[C@@H]2[C@H]([C@@H](O)C[C@@]3(C)[C@H]2CC[C@]3(O)C(=O)CO)[C@@]2(C)C=CC(=O)C=C12 −0.6%

Quick one: CD46 expression Percentage change of CC(=O)O[C@@]12CO[C@@H]1C[C@H](O)[C@@]1(C)C(=O)[C@H](O)C3=C(C)[C@@H](OC(=O)[C@H](O)[C@@H](NC(=O)OC(C)(C)C)c4ccccc4)C[C@@](O)([C@@H](OC(=O)c4ccccc4)[C@H]21)C3(C)C ? 0.3%

----------
# Test system: CD46 expression
# measurement description: CD46 expression by RNA-sequencing in paired tumor biopsies before and after therapy;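 note: FFPE human tumor biopsies, exome-capture RNA-seq, reads aligned to GRCh37, counts normalized for GC content, length and depth, summed per gene, log2-transformed, samples paired before versus after therapy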
# protocol conditions: Pancreatic Cancer; paired biopsies
Let's look at some compounds and their measured Percent Change in CD46 expression.
Please reply with the bare figure in % and do not write the unit itself.

Request the reported Percent Change in CD46 expression associated with Nc1ccn([C@@H]2O[C@H](CO)[C@@H](O)C2(F)F)c(=O)n1 [gemcitabine] 1.5

So what does the record say about Percent Change in CD46 expression for O=c1[nH]cc(F)c(=O)[nH]1 [fluorouracil] ? 1.5

Report Percent Change in CD46 expression for Nc1nc2c(c(=O)[nH]1)N(C=O)C(CNc1ccc(C(=O)N[C@@H](CCC(=O)O)C(=O)O)cc1)CN2 (stereo partly drawn) [leucovorin] please. 1.5

I'd like to know its Percent Change in CD46 expression. The compound in question is CCc1c2c(nc3ccc(OC(=O)N4CCC(N5CCCCC5)CC4)cc13)-c1cc3c(c(=O)n1C2)COC(=O)[C@]3(O)CC [irinotecan] −0.1

Record request: Percent Change in CD46 expression value, item CCCCCOC(=O)Nc1nc(=O)n([C@@H]2O[C@H](C)[C@@H](O)[C@H]2O)cc1F [capecitabine] 2.8

Bench note: what Percent Change in CD46 expression did O=C1[O][Pt]2([NH][C@@H]3CCCC[C@H]3[NH]2)[O]C1=O [oxaliplatin] show? 1.0
